- experimental.target: T1, BCMA (Homo sapiens (Human), UniProt Q02223 1-54, limits assumed)
- T1 sequence: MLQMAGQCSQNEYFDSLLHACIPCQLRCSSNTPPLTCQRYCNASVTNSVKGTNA
- protocol: ELISA, format not described
- Set-up: unit not given here
ELISA_avg vs 10: less than gives y; not less than gives n.

Answered examples (4):
D-domain SEQ ID NO: 280 (designed binder) MGSWSEFKYKLALIKWYLEALGGSEAELAHFEGWIANFETTLQKYKGKGNPEVEALRKEAAAIRDELQAYRHN :: n
D-domain SEQ ID NO: 48 (designed binder) MGSWNEFAWRLTAIEQRLMALGGSEAELAAFEKEIAAFESELQAYKGKGNPEVEELRHYAAGIRDNLQAYRHN :: n
D-domain SEQ ID NO: 243 (designed binder) MGSWSGFKYRLAVIKFYLEALGGSEAELASFELFIAKFEIDLQNYKGKGNPEVEALRKEAAAIRDELQAYRHN :: n
D-domain SEQ ID NO: 197 (designed binder, also called bc40) MGSWSEFWVRLGAIRERLDALGGSEAELAAFEKEIAAFESELQAYKGKGNPEVEKLRYTAATIRRFLQAYRHN :: y

Next, consider the following binder.
Strictly below 10: is that where ELISA_avg of D-domain SEQ ID NO: 110 (designed binder) MGSWQEFTGRLHAIRHRLEALGGSEAELAAFEKEIAAFESELQAYKGKGNPEVEELRFEAAYIRVWLQAYRHN sits?
y
